Tested on: Aspergillus fumigatus
Experiment: Antifungal activity against Aspergillus fumigatus FP1305
Format: functional, organism-based
What IC50 was measured for each of the following?
Only the number, expressed in ng/mL, is required.

Recorded IC50 (compound CCCCCCCCOc1ccc2cc(C(=O)N[C@@H]3C[C@@H](O)[C@@H](O)NC(=O)[C@@H]4[C@@H](O)[C@@H](C)CN4C(=O)[C@H]([C@H](O)CC(N)=O)NC(=O)[C@H]([C@H](O)[C@@H](O)c4ccc(O)c(OS(=O)(=O)[O-])c4)NC(=O)[C@@H]4C[C@@H](O)CN4C(=O)C([C@@H](C)O)NC3=O)ccc2c1.[Na+] (stereo partly drawn) ): 3

Data point: CCCCCCCOc1ccc(-c2ccc(C(=O)N[C@@H]3C[C@@H](O)[C@@H](O)NC(=O)[C@@H]4[C@@H](O)[C@@H](C)CN4C(=O)[C@H]([C@H](O)CC(N)=O)NC(=O)[C@H]([C@H](O)[C@@H](O)c4ccc(O)c(OS(=O)(=O)[O-])c4)NC(=O)[C@@H]4C[C@@H](O)CN4C(=O)C([C@@H](C)O)NC3=O)cc2)cc1.[Na+] (stereo partly drawn) ; IC50 = 2

For record CCCCCOc1ccc(-c2ccc(/C=C/C(=O)N[C@@H]3C[C@@H](O)[C@@H](O)NC(=O)[C@@H]4[C@@H](O)[C@@H](C)CN4C(=O)[C@H]([C@H](O)CC(N)=O)NC(=O)[C@H]([C@H](O)[C@@H](O)c4ccc(O)c(OS(=O)(=O)[O-])c4)NC(=O)[C@@H]4C[C@@H](O)CN4C(=O)C([C@@H](C)O)NC3=O)cc2)cc1.[Na+] (stereo partly drawn) the listed IC50 is 2

====

Tested on: Aspergillus fumigatus
Experiment: Antifungal activity against Aspergillus fumigatus FP1305
Assay type: functional, organism-based
Starred links: 1 amine or outer side, 2 acyl side, 3 side chain; linkers in the order of their positions; H or OH if unused. Positions of bridges follow the written chain, without caps; N, C: chain ends. Non-standard residues stand in square brackets, D forms with d. Residues, ends and D or L forms follow the SMILES beside them. *: point of attachment. hTyr(3S-OH,4S-OH,3'-OSO3H) = N[C@H](C(=O)O)[C@H](O)[C@@H](O)c1ccc(O)c(OS(=O)(=O)O)c1; Orn(4R-OH,5R-OH) = O=C([C@H](C[C@@H](O)[C@@H](O)N[*:3])N[*:1])[*:2]; Orn(4R-OH,5S-OH) = O=C([C@H](C[C@@H](O)[C@H](O)N[*:3])N[*:1])[*:2]; Pro(3S-OH,4S-Me) = C[C@H]1CN[C@H](C(=O)O)[C@H]1O; X1 = CCCCOc1ccc(-c2ccc(-c3ccc(C(=O)*)cc3)cc2)cc1; Benzoyl(4-octyloxy) = CCCCCCCCOc1ccc(C(=O)*)cc1; Gln(3R-OH) = NC(=O)C[C@@H](O)[C@H](N)C(=O)O; Hyp = O=C(O)[C@@H]1C[C@@H](O)CN1
measured quantity: IC50 (µg/mL)
Give the value in µg/mL but do not write µg/mL after it.

// recorded IC50 for CCCCCCCCCCOc1ccc2cc(C(=O)N[C@@H]3C[C@@H](O)[C@@H](O)NC(=O)[C@@H]4[C@@H](O)[C@@H](C)CN4C(=O)[C@H]([C@H](O)CC(N)=O)NC(=O)[C@H]([C@H](O)[C@@H](O)c4ccc(O)c(OS(=O)(=O)[O-])c4)NC(=O)[C@@H]4C[C@@H](O)CN4C(=O)C([C@@H](C)O)NC3=O)ccc2c1.[Na+] (stereo partly drawn) : 0.015

// IC50 value for CCCCCCCCOc1ccc(C(=O)N[C@H]2C[C@@H](O)[C@H](O)NC(=O)[C@@H]3[C@@H](O)[C@@H](C)CN3C(=O)[C@H]([C@H](O)CC(N)=O)NC(=O)[C@H]([C@H](O)[C@@H](O)c3ccc(O)c(OS(=O)(=O)[O-])c3)NC(=O)[C@@H]3C[C@@H](O)CN3C(=O)[C@H]([C@@H](C)O)NC2=O)cc1.[Na+] [FR-131535] ({Benzoyl(4-octyloxy)}-[Orn(4R-OH,5S-OH)]T[Hyp][hTyr(3S-OH,4S-OH,3'-OSO3H)][Gln(3R-OH)][Pro(3S-OH,4S-Me)]; lactam 1-C) : 0.015

IC50 for CCCCOc1ccc(-c2ccc(-c3ccc(C(=O)N[C@H]4C[C@@H](O)[C@@H](O)NC(=O)[C@@H]5[C@@H](O)[C@@H](C)CN5C(=O)[C@H]([C@H](O)CC(N)=O)NC(=O)[C@H]([C@H](O)[C@@H](O)c5ccc(O)c(OS(=O)(=O)O)c5)NC(=O)[C@@H]5C[C@@H](O)CN5C(=O)[C@H]([C@@H](C)O)NC4=O)cc3)cc2)cc1 (X1-[Orn(4R-OH,5R-OH)]T[Hyp][hTyr(3S-OH,4S-OH,3'-OSO3H)][Gln(3R-OH)][Pro(3S-OH,4S-Me)]; lactam 1-C) is 0.002
